The following compounds are shown together with reported AUC(0-t) values.
- EXPERIMENT_NOTES: Rat pharmacokinetic evaluation
- Format: in vivo, SD male rats
- EXPERIMENTAL_PARAMETERS: male, Sprague-Dawley, plasma; SD rat, intravenous bolus 1 mg/kg; read-out: AUClast iv
In your response, put the unit directly after the numeric value.

CC(C)(O)c1cc2c(N3CCC4(CC3)CC4)c(C#N)c(=O)[nH]c2cn1 : 2430 ng·h/mL
CCc1cc2c(N3CCC4(CC3)CC4)c(C#N)c(=O)[nH]c2cn1 : 1010 ng·h/mL
CCc1cc2c(N3CCC(C)(OC)CC3)c(C#N)c(=O)[nH]c2cn1 : 748 ng·h/mL
N#Cc1c(N2CCC3(CC2)CC3)c2cc(C(O)C3CC3)ncc2[nH]c1=O (stereo not shown) : 1590 ng·h/mL
N#Cc1c(N2CCC3(CC2)CC3)c2ccncc2[nH]c1=O : 574 ng·h/mL

Task: Look at this compound and give its reported AUC(0-t). CNC(=O)c1cc2c(N3CCC4(CC3)CC4)c(C#N)c(=O)[nH]c2cn1
Result: 769 ng·h/mL

Task: Dear colleague, I am looking for the recorded AUC(0-t) of the following compound: Cc1cc2c(N3CCC4(CCC4)CC3)c(C#N)c(=O)[nH]c2cn1
Result: 1240 ng·h/mL

Origin of the recorded values: patent US10889591B2
